Origin of measurements: ChEMBL document CHEMBL1201862

Tested on: SK-OV-3
experimental.details: NCI tumour cell line growth inhibition, 48 h
Calls of active or inactive are those of the source. Rule as the data show it: active = GI50 up to about 1.1 µM and inactive = higher.
Catalogue of GI50 readings, one per entry.

Task item: Give the measured GI50 of Clc1ccc2c(Cl)ncnc2c1 .
Reply: > 100 µM (inactive)

Task item: Try this compound next: Nc1nc2c(ncn2C2C=CC(COS(N)(=O)=O)C2)c(=O)[nH]1 (stereo unspecified)
Reply: > 100 µM (inactive)

----------
System: SK-MEL-2
experimental.details: NCI tumour cell line growth inhibition, 48 h
Active and inactive are the calls of the source. No stated cut-off is given here; in the data, active = GI50 up to about 1.1 µM and inactive = higher.
Catalogue of GI50 readings, one per entry.

Use the examples below as a reference point.
CC(C)(C)C(=O)CC1=Nc2ccccc2SC1(O)CC(=O)C(C)(C)C (stereo not given) = 13.7 µM (inactive)
CNNC1=NS(=O)(=O)c2cc(C#N)c(Cl)cc2S1 = > 10 µM (inactive)
O=S(=O)(CCCCl)SCCCCl = 44.8 µM (inactive)
N=c1oc2ccccc2cc1-c1nc2ccccc2[nH]1 = 49.2 µM (inactive)
COc1ccc2c(c1)[n+]([O-])c1cc(C#N)ccc1[n+]2[O-] = 4.27 µM (inactive)

Task item: Give the measured GI50 of COc1ccc2nccc(C3=CCC4CCN(C(=O)c5ccccc5)C3C4)c2c1 (stereo not given) .
Reply: > 100 µM (inactive)

Task item: Try this molecule next: C[n+]1ccc(Nc2ccc(NC(=O)c3ccc(Nc4cc[n+](C)c5ccc([N+](=O)[O-])cc45)cc3[N+](=O)[O-])cc2)cc1
Reply: 48.8 µM (inactive)

Task item: Try this molecule next: COC1=CC(=O)C2C(C1=O)C(c1ccc(OC)c(OC)c1)[C@H]2C (stereo not given in full)
Reply: > 100 µM (inactive)

Task item: Try this molecule next: CC(C)(CO)NC(=O)c1cccc(C(=O)NC(C)(C)CO)c1Br
Reply: > 100 µM (inactive)

Task item: Try this molecule next: O=C(O)c1nc2cc(C(F)(F)F)ccc2nc1Nc1ccc(F)cc1
Reply: 7.16 µM (inactive)

Task item: Try this molecule next: CC(=O)N(CN1C(=O)CCC1C(=O)O)c1ccc(C)cc1 (stereo not given)
Reply: > 100 µM (inactive)

Task item: Try this molecule next: N#CCCN(CCC#N)c1ccc(/C=C2\N=C(c3cc([N+](=O)[O-])ccc3Cl)N(S(=O)(=O)c3ccccc3)C2=O)cc1
Reply: > 100 µM (inactive)

Task item: Try this molecule next: Nn1c(-c2ccccc2)nc2ccc(Br)cc2c1=O
Reply: 57.1 µM (inactive)

Task item: Try this molecule next: Cc1nc(-n2nc(-c3ccccc3)cc2-c2ccccc2)sc1C(=O)CC(=O)C(=O)Nc1ccc(O)cc1
Reply: > 100 µM (inactive)

Task item: Try this molecule next: CC1(C)OC2COC(c3n[nH]c4c(=O)[nH]c(=O)[nH]c34)C2O1 (stereo not given)
Reply: > 100 µM (inactive)

Task item: Try this molecule next: CCCNCC(=O)O[C@]1(CC)C(=O)OCc2c1cc1n(c2=O)Cc2cc3ccccc3nc2-1
Reply: 1.13 µM (inactive)

Task item: Try this molecule next: COc1ccc2c(c1)CCN1CCc3ccccc3CC21 (stereo not given)
Reply: 57.3 µM (inactive)

Task item: Try this molecule next: CCCCN(CCCC)C(=O)C(=O)C(C(=O)C(=O)OC)c1nc2ccccc2o1 (stereo not given)
Reply: > 100 µM (inactive)

Task item: Try this molecule next: O=C1Cc2c([nH]c3c(Br)cccc23)-c2ccccc2N1
Reply: > 100 µM (inactive)

Task item: Try this molecule next: O=S(=O)(CCBr)CCBr
Reply: 11.3 µM (inactive)
